system: Candida tropicalis; experiment: Antifungal activity against Candida tropicalis Berkout KCCM 50662 after 1 day by 2-fold broth dilution method; format: functional; conditions: KCCM 50662, 24 h

| Cpd smiles | System name | Result unit | Readout qualifier | MIC |
| --- | --- | --- | --- | --- |
| O=C1C(Sc2ccc(Br)cc2)=C(Sc2ccc(Br)cc2)C(=O)c2[nH]ccc21 | Candida tropicalis | µg/mL | > | 100 |
| O=C1C(Sc2ccc(Cl)cc2)=C(Sc2ccc(Cl)cc2)C(=O)c2[nH]ccc21 | Candida tropicalis | µg/mL | = | 12.5 |
| COC(=O)c1cn(-c2ccc(F)cc2)c2c1C(=O)C(C)=C(C)C2=O | Candida tropicalis | µg/mL | > | 100 |
| Cc1cccc(SC2=C(Sc3cccc(C)c3)C(=O)c3[nH]ccc3C2=O)c1 | Candida tropicalis | µg/mL | = | 12.5 |
